Recorded inhibition values for a group of molecules are listed next.
- tested-target: Adrenergic receptor alpha (Rattus norvegicus) (UniProt P15823+P23944+P43140+P22086+P19328+P22909)
- method: Irreversible inhibition against Norepinephrine (NE)-induced response in rat vas deferens with benextramine (BHC) as standard at a concentration of 2 x 10e-5 M
- Format: functional

molecule	inhibition, %
COc1ccccc1C(O)CNCCCCCCNCCSSCCNCCCCCCNCC(O)c1ccccc1OC (stereo not given)	82
OC(CNCCCCCCNCCSSCCNCCCCCCNCC(O)c1ccc2c(c1)OCO2)c1ccc2c(c1)OCO2 (stereo not given)	43
COc1cc(C(O)CNCCCCCCNCCSSCCNCCCCCCNCC(O)c2cc(OC)c(OC)c(OC)c2)cc(OC)c1OC (stereo not given)	98
C(CCCN1CCCC1)CCNCCSSCCNCCCCCCN1CCCC1	98
OC(CNCCCCCCNCCSSCCNCCCCCCNCC(O)c1ccccc1)c1ccccc1 (stereo not given)	13
COc1ccccc1CNCCCCCCOCCSSCCOCCCCCCNCc1ccccc1OC	36
COc1cccc(C(O)CNCCCCCCNCCSSCCNCCCCCCNCC(O)c2cccc(OC)c2)c1 (stereo not given)	91
O=C(Cc1ccccc1)NCCCCCCNCCSSCCNCCCCCCNC(=O)Cc1ccccc1	44
COc1ccccc1CNCCCCCCNCCSSCCNCCCCCCNCc1ccccc1OC	100
c1ccc2c(c1)CN(CCCCCCNCCSSCCNCCCCCCN1CNc3ccccc3C1)CN2	89

====

- tested-target: Adrenergic receptor alpha (Rattus norvegicus) (UniProt P15823+P23944+P43140+P22086+P19328+P22909)
- method: Irreversible inhibition against Norepinephrine (NE)-induced response in rat vas deferens with benextramine (BHC) as standard at a concentration of 2 x 10e-5 M
- Format: functional

compound	inhibition
c1csc(CNCCCCCCNCCSSCCNCCCCCCNCc2cccs2)c1	70%
COc1ccc(C(O)CNCCCCCCNCCSSCCNCCCCCCNCC(O)c2ccc(OC)c(OC)c2)cc1OC (stereo unspecified)	87%
C(CCCN1CCCCC1)CCNCCSSCCNCCCCCCN1CCCCC1	100%
Nc1ccccc1CNCCCCCCNCCSSCCNCCCCCCNCc1ccccc1N	79%
COc1ccc(C(O)CNCCCCCCNCCSSCCNCCCCCCNCC(O)c2ccc(OC)cc2)cc1 (stereo unspecified)	81%
c1ccc(CNCCSSCCNCc2ccccc2)cc1	12%
c1ccc(CNCCCCCCOCCSSCCOCCCCCCNCc2ccccc2)cc1	32%
CN(CCCCCCN1CCCC1)CCSSCCN(C)CCCCCCN1CCCC1	41%
c1ccc2c(c1)CCN2CCCCCCNCCSSCCNCCCCCCN1CCc2ccccc21	37%
NC(CCCCCNCCSSCCNCCCCCC(N)Cc1ccccc1)Cc1ccccc1 (stereo unspecified)	57%
c1coc(CNCCCCCCNCCSSCCNCCCCCCNCc2ccco2)c1	100%
Cn1ccc(CNCCCCCCNCCSSCCNCCCCCCNCc2ccn(C)c2)c1	100%
c1ccc(COCCCCCCNCCSSCCNCCCCCCOCc2ccccc2)cc1	60%
CN(CCCCCCN1CCCCC1)CCSSCCN(C)CCCCCCN1CCCCC1	34%
Oc1ccc(C(O)CNCCCCCCNCCSSCCNCCCCCCNCC(O)c2ccc(O)c(O)c2)cc1O (stereo unspecified)	92%
COc1ccccc1COCCCCCCNCCSSCCNCCCCCCOCc1ccccc1OC	58%

Data credit: ChEMBL document CHEMBL1123930
